Origin of measurements: patent US20110105397A1

experimental-target: T1, human corticotrophin releasing hormone receptor type 2 (CRHR2) (human, UniProt Q13324 1-411)
T1 sequence (looked up): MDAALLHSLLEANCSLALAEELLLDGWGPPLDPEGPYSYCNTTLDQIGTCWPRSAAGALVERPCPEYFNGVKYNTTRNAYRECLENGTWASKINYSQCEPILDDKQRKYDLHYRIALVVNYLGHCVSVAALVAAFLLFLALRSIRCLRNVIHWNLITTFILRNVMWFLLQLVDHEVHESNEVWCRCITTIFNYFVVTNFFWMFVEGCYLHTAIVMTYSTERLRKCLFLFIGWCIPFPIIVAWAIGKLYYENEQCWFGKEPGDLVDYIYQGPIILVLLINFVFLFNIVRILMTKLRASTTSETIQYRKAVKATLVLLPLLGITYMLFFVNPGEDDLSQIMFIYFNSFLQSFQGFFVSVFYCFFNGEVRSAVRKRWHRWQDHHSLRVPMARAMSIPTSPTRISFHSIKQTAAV
protocol-notes: cell-based or functional assay
Where no end group is shown, it is not given here.
measured-endpoint: Log DR (log10)
Kindly answer with a numeric value in log10, unit omitted.

binder: TKFTLSLDVPTNIMNLLFNIAKAKNLRACAAANAHLMAQI-NH2 [Cys-variant stresscopin-like peptide SEQ ID NO: 30]
unit-abbreviation: log10
Log DR: 1.28
--
binder: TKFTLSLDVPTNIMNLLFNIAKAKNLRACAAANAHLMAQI (NES-PEG (about 20 kDa) on Cys 29; C-terminal amide (-NH2)) [Pegylated Cys-variant stresscopin-like peptide with NES linker and PEG about 20 kDa SEQ ID NO: 83]
unit-abbreviation: log10
Log DR: 1.63
--
binder: TKFTLSLDVPTNIMNLLFNIAKAKNLRAQAAANAHLMCQI (NES-PEG (about 20 kDa) on Cys 38; C-terminal amide (-NH2)) [Pegylated Cys-variant stresscopin-like peptide with NES linker and PEG about 20 kDa SEQ ID NO: 92]
unit-abbreviation: log10
Log DR: 1.55
--
binder: TKFCLSLDVPTNIMNLLFNIAKAKNLRAQAAANAHLMAQI-NH2 [Cys-variant stresscopin-like peptide SEQ ID NO: 5]
unit-abbreviation: log10
Log DR: 0.76
--
binder: TKFTLSLDVPTCIMNLLFNIAKAKNLRAQAAANAHLMAQI (NES-PEG (about 20 kDa) on Cys 12; C-terminal amide (-NH2)) [Pegylated Cys-variant stresscopin-like peptide with NES linker and PEG about 20 kDa SEQ ID NO: 66]
unit-abbreviation: log10
Log DR: 1.26
--
binder: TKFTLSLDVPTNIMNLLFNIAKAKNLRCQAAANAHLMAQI (NES-PEG (about 20 kDa; MW20000) on Cys 28; C-terminal amide (-NH2)) [Pegylated Cys-variant stresscopin-like peptide with NES linker and PEG about 20 kDa SEQ ID NO: 82]
unit-abbreviation: log10
Log DR: 1.12
--
binder: TKFTLSLDVPTNIMNLLFNIAKAKCLRAQAAANAHLMAQI-NH2 [Cys-variant stresscopin-like peptide SEQ ID NO: 26]
unit-abbreviation: log10
Log DR: 0.08
--
binder: TKFTLSLDVPTNICNLLFNIAKAKNLRAQAAANAHLMAQI-NH2 [Cys-variant stresscopin-like peptide SEQ ID NO: 15]
unit-abbreviation: log10
Log DR: 0.9

Lab note: next binder to report on.
Lab book: Log DR of TKFTLSLDVPTNIMNLLFCIAKAKNLRAQAAANAHLMAQI (NES-PEG (about 20 kDa) on Cys 19; C-terminal amide (-NH2)) [Pegylated Cys-variant stresscopin-like peptide with NES linker and PEG about 20 kDa SEQ ID NO: 73] noted as 1.11
